# System: RXF 393 renal
# Test Details: NCI-60 one-dose screen, 48 h (100 = growth as untreated, 0 = no growth, -100 = all killed)
# Condition Notes: 10 µM unless noted
The panel holds about 83,000 compounds, 20% with a hit somewhere; the sample as a whole holds those more often.
Observable: growth (%)
State the answer as a number, implicitly in %.

In: Sample COc1ccc2[nH]c(=O)c3c4ccccc4cn3c2c1 — what was its growth?
Out: -25.2

In: Then this molecule: O=C(O)c1nc(-c2ccccc2)oc1N1CCOCC1
Out: 104

In: Please answer likewise for CN1CCN(Cc2ccc(NC(=O)c3cncc(C#Cc4cnc(N)c5cnccc45)c3)cc2C(F)(F)F)CC1
Out: -48.3

In: Try the molecule CN1CCN(Cc2ccc(NC(=O)c3cncc(C#Cc4cnc(N)c5ccncc45)c3)cc2C(F)(F)F)CC1
Out: -30.1

In: And COc1ccc(-c2c(N)n[nH]c2-c2cc3c(c(OC)c2OC)OCO3)cc1 ?
Out: 108

====

# System: OVCAR-5 ovarian
# Test Details: NCI-60 one-dose screen, 48 h (100 = growth as untreated, 0 = no growth, -100 = all killed)
# Condition Notes: 10 µM unless noted
About 83,000 compounds went through this panel and 20% of them were active in at least one assay; those are over-represented in the sample as a whole.
What growth was measured for each of the following?
Report the value in % with no unit label.

In: I would be grateful if you could share the reported growth for O=C1c2ccccc2-c2ccccc2C1(Cl)Cl .
Out: -73.7

In: Same for C=C1CCC2C3(C)COC(c4ccccc4)OC3CCC2(C)C1/C=C/C1=CCOC1=O (configuration not stated)
Out: 78.7

In: Check CC(=O)Nc1scc[n+]1Cc1ccccc1 too.
Out: 110

In: Then what about the compound Cc1cc(C2(c3cc(C)c(O)cc3C)OS(=O)(=O)c3ccccc32)c(C)cc1O ?
Out: 111

In: And what about the compound CCOC(=O)C1=C(C)NC(C)=C(C(=O)OCC)C1(C)C ?
Out: 99.7

In: For O=C(c1ccccc1)c1c(/C=C/c2ccccc2)c2ccccc2[nH]c1=O then?
Out: 90.4

In: What would you report for CC(O)CN1CCCCC1 (configuration not stated) ?
Out: 110

In: Request: O=C1c2c(Cl)c(Cl)c(Cl)c(Cl)c2C(=O)C2(Cl)CC=CCC12Cl (configuration not stated)
Out: 95.7

In: Thanks! And Nc1nc(=O)c2ccccc2s1 ?
Out: 99.6

In: Please give the result for CN(C[C@H]1Cc2c(cccc2N2CCN(c3ncccn3)CC2)CN1)[C@H]1CCCc2cccnc21 too.
Out: 52.8

In: Field entry: CNC(=S)NNC(=O)C1CC1
Out: 107

In: Quick one: O=C(N/N=C/C=C\c1ccccc1)C(=O)N/N=C/C=C/c1ccccc1
Out: 112

====

# Tested on: LOX IMVI melanoma
# Test Details: NCI-60 one-dose screen, 48 h
# Condition Notes: 10 µM unless noted
Compounds without any hit were thinned out: in the full panel of roughly 83,000, 20% have a hit. Activity calls are given as the source filed them. The calls were made as follows: active = growth percent below 10; inactive = the rest.
Reply using exactly one outcome from active, inactive

In: What is the recorded call for this compound in the test? COc1ccc2c(c1)cn1c3ccc(OC)cc3[nH]c(=O)c21
Out: active

In: Entry O=C(CSc1nc2ccccc2[nH]1)c1ccc(N2CCOCC2)cc1 please
Out: inactive

In: Now this one: O=C(CN1CCN(c2cc3c(cc2F)c(=O)c(C(=O)N/N=C/c2ccccc2O)cn3C2CC2)CC1)N/N=C\c1ccccc1O
Out: active

In: Another compound to check: S=C1CC(=S)NC(=S)N1
Out: inactive

In: Now consider COc1ccc(C2C=C(c3ccc(OC)c(OC)c3)N=C3SC=C(C)N32)c(Br)c1 (configuration not stated) .
Out: inactive

In: Proceed to O=C(c1ccccc1)C1OC1c1ccc([N+](=O)[O-])cc1 (configuration not stated)
Out: inactive

In: Field entry: COC1=C(OC)C(=O)C(CCCCCCCCCC[P+](c2ccccc2)(c2ccccc2)c2ccccc2)=C(C)C1=O
Out: active

In: What do we get for COc1cc(C2C3=C(COC3=O)Nc3cc4c(cc32)CCC4)cc2c1OCO2 (configuration not stated) ?
Out: inactive

In: # repeat for O=C(c1c[nH]c(=O)c(-c2ccccc2)c1)c1ccccc1O
Out: inactive

In: How about COc1ccc(C2C=C(c3ccc(Cl)cc3)N=C3SC=C(C)N32)c(Br)c1 (configuration not stated) ?
Out: inactive

In: Another compound to look at: O=C(O)COc1ccc(-c2cssc2=S)cc1
Out: inactive

In: Repeat for the following compound: COc1ccc(OC)c(C2OC(c3ccc4ccccc4c3O)=NN2C(C)=O)c1 (configuration not stated)
Out: inactive

In: Another: Nc1ccc(C(=O)CSc2nc3ccccc3[nH]2)cc1
Out: inactive

In: Same for CCCCC(CC)OC(=O)C(Br)CC (configuration not stated)
Out: inactive

In: Record: CC(C)(C)OC(=O)NC(CSCc1ccccc1)C(=O)ON1C(=O)CCC1=O (configuration not stated)
Out: inactive

In: For O=C(Nc1ccncc1)C(=O)c1cn(S(=O)(=O)c2ccc(Br)cc2)c2ccccc12 then?
Out: inactive

In: Next entry: COc1cc(/C=C/C(=O)c2cccc(-n3cc(-c4cc(OC)c(OC)c(OC)c4)[nH]c3=O)c2)cc(OC)c1OC
Out: active

In: Follow-up item: CNC(=S)NNC(=O)C1CC1
Out: inactive

In: // same read-out, input: CC(O)CN1CCCCC1 (configuration not stated)
Out: inactive

In: Lookup COc1ccc(-c2cc3c(OC)c(OC)c(OC)cc3oc2=O)cc1
Out: inactive

In: And then Cc1ccc(S(=O)(=O)n2cc(C(=O)C(=O)Nc3ccncc3)c3ccccc32)cc1 , what is it?
Out: inactive

In: How about COc1cc2c(cc1O)CCN1C[C@@H](CC(C)C)[C@@H](O)C[C@@H]21 ?
Out: inactive

In: // repeat for COc1ccc(-c2ccc(C)n2-c2ccc(-c3nc4ccccc4s3)cc2)cc1 and report
Out: inactive

In: One more compound: CCN(CC)CCC(CNc1ccnc2cc(Cl)ccc12)c1ccccc1 (configuration not stated)
Out: inactive

In: And COc1cc2c(cc1OCCCCCn1c3ccccc3c3ccccc31)N=C[C@@H]1CCCN1C2=O ?
Out: active

In: Can you handle Brc1ccc(-c2[nH]ncc2-c2c[nH]c3ccccc23)cc1 next?
Out: inactive

In: Again, but for CCN(CC)CCC(CNc1c2ccc(Cl)cc2nc2ccc(OC)cc12)c1ccccc1 (configuration not stated)
Out: active

In: Now consider COc1ccc(-n2c(=S)sc3c(Cl)nc(C)nc32)c(OC)c1 and answer again.
Out: active

In: What would you report for CCCCN(CCCC)C(=N)c1ccnc2ccccc12 ?
Out: inactive

In: Same again, this time with c1ccc(-c2cn(-c3ccccc3)c(-c3ccccc3)n2)cc1
Out: inactive

In: And for COc1ccc2c(c1)[nH]c(=O)c1c3cc(C)c(C)cc3cn21 ?
Out: active

In: Follow-up item: CCN(CC)CCOc1ccc(/C(=C(/C)c2ccccc2)c2ccc(OC(C)=O)cc2)cc1
Out: inactive

In: Entry to check: O=[N+]([O-])c1ccc(/C=C/C2(CCl)OCCO2)cc1
Out: inactive

In: Further, for COc1ccc(C2C=C(c3ccc(N)cc3)N=C3SC=CN32)cc1OC (configuration not stated) ?
Out: inactive

In: Queued: Cc1c(C(N)=O)sc2c1c(=O)n(Cc1ccccc1)c1nnc(Nc3ccccc3)n21
Out: inactive

In: Now the same for CN1C(=O)N(C)C2C1NN=c1s/c(=C\c3cccnc3)c(=O)n12 (configuration not stated)
Out: inactive

In: How about O=C(NNC(=S)Nc1ccccc1)c1cc2ccc1CCc1ccc(cc1)CC2 ?
Out: inactive

In: Quick one: Brc1cccc(-c2cc(-c3ccc4nccnc4c3)[nH]n2)c1
Out: inactive

In: Now the compound COc1ccc(N=Cc2c(O)ccc3c2oc2cc(Cl)c(O)c(Cl)c23)cc1
Out: inactive

In: Ok, now CN1CCN(Cc2ccc(NC(=O)c3nc4ccc5[nH]ncc5c4c4c3CCC4)cc2C(F)(F)F)CC1
Out: active

In: Try the compound C=C(C)[C@@H]1CC[C@]2(C(=O)O)CC[C@]3(C)[C@H](CC[C@@H]4[C@@]5(C)C[C@@H](CC#Cc6ccc(C(F)(F)F)cc6)[C@H](O)C(C)(C)[C@@H]5CC[C@]43C)[C@@H]12
Out: active

In: Now this one: NC(=O)c1c(NC(=S)Nc2ccc(OC(F)(F)F)cc2)sc2c1CCC1(C2)OCCO1
Out: inactive
